- target_of_assay: TNK1 (Homo sapiens (Human))
- Sequence (Q13470 whole entry): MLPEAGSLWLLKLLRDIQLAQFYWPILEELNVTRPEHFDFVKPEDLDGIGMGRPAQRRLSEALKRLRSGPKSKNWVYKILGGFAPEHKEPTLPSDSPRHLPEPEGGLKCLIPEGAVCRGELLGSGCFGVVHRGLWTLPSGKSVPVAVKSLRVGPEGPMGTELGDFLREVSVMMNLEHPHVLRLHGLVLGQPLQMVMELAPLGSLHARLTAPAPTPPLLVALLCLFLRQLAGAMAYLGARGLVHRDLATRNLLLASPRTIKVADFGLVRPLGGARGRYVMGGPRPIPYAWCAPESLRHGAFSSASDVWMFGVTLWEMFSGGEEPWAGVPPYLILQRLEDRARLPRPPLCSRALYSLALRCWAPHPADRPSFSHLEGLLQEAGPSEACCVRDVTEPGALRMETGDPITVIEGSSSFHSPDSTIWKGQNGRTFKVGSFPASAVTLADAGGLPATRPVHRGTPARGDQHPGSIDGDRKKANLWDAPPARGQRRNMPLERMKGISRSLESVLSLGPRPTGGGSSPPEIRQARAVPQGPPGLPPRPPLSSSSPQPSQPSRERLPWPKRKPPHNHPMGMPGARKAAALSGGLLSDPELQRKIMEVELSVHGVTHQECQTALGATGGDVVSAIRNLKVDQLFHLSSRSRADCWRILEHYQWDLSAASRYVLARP
measure: pIC50
API: returns pIC50 as number; meaning -log10 of concentration in mol/L.

Please fill in: pIC50 reported for COc1cc(N2CCC(N3CCN(C)CC3)CC2)ccc1Nc1ncc2c(n1)N(C)c1sc(C)nc1C(=O)N2C = 5.50

###

- Tested on: MDA-MB-231 cells
- experimental_protocol: ultra-low adherent 3D-spheroid suspension cell viability (3D Cell Titer-Glo), 120 hours
- Type: cell-based
- assay_conditions: Homo sapiens
measure: IC50

Some solved entries appear below for comparison.
{"cpd_smiles": "COc1cc(N2CCC(N3CCN(C)CC3)CC2)ccc1Nc1ncc2c(n1)N(C)c1sc(C)nc1C(=O)N2", "measure": "IC50", "result": "6.8 µM"}
{"cpd_smiles": "Cc1nc2c(s1)N(C)c1nc(Nc3ccc4c(c3)CCC(=O)N4)ncc1N(C)C2=O", "measure": "IC50", "result": "> 10 µM"}

Next:
Entry CCN1c2nc(Nc3ccc(N4CCC(N5CCN(C)CC5)CC4)cc3OC)ncc2N(C)C(=O)c2nc(C)sc21 under MDA-MB-231 cells had IC50 of > 10 µM

###

- target_of_assay: DCLK2 (Homo sapiens (Human), UniProt Q8N568)
- Sequence (Q8N568 whole entry): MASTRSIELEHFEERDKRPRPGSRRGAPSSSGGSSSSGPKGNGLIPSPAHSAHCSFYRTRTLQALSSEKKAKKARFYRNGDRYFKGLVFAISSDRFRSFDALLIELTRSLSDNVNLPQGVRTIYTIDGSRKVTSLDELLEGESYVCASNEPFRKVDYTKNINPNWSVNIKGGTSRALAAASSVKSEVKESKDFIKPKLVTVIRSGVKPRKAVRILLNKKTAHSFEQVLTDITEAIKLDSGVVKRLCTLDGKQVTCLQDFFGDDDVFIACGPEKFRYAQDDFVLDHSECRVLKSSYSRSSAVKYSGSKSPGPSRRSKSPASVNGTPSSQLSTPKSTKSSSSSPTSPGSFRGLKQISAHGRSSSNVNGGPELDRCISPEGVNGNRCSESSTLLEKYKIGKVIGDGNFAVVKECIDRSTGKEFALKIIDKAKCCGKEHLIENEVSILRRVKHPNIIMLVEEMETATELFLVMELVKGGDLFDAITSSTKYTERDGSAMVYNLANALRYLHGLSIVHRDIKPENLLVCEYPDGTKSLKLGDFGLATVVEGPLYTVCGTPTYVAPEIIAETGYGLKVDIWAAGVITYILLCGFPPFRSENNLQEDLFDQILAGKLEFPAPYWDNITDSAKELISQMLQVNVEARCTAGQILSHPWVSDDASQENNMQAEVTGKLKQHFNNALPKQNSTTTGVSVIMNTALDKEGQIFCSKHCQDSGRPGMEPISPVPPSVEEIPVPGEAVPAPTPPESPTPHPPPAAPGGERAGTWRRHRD
- experimental_protocol: Biochemical IC50 (Invitrogen) of off-targets
measure: pIC50
API: returns pIC50 as number; meaning -log10 of concentration in mol/L.

Entry COc1cc(N2CCC(N3CCN(C)CC3)CC2)ccc1Nc1ncc2c(n1)N(C)c1sc(C)nc1C(=O)N2C under DCLK2 (Homo sapiens (Human), UniProt Q8N568) had pIC50 of 5.51

###

- System: MDA-MB-231 cells
- experimental_protocol: ultra-low adherent 3D-spheroid suspension cell viability (3D Cell Titer-Glo), 120 hours
- Type: cell-based
- assay_conditions: Homo sapiens
# IC50 values compiled below

{"cpd_smiles": "COc1cc2c(cc1Nc1ncc3c(n1)N(C)c1sc(C)nc1C(=O)N3C)CN(C)CC2", "IC50": "> 10 µM"}

Please fill in: IC50 reported for CNC(=O)c1ccc(Nc2ncc3c(n2)N(C)c2sc(C)nc2C(=O)N3C)c(OC)c1 = > 10 µM

Please fill in: IC50 reported for COc1cc(N2CCN(CCO)CC2)ccc1Nc1ncc2c(n1)N(C)c1sc(C)nc1C(=O)N2C = > 10 µM

Please fill in: IC50 reported for CNC(=O)c1ccc(Nc2ncc3c(n2)N(C)c2sc(C)nc2C(=O)N3C)cc1 = 5.9 µM

###

- target_of_assay: PTK2 (FAK) (Homo sapiens (Human), UniProt Q05397)
- Sequence (Q05397 whole entry): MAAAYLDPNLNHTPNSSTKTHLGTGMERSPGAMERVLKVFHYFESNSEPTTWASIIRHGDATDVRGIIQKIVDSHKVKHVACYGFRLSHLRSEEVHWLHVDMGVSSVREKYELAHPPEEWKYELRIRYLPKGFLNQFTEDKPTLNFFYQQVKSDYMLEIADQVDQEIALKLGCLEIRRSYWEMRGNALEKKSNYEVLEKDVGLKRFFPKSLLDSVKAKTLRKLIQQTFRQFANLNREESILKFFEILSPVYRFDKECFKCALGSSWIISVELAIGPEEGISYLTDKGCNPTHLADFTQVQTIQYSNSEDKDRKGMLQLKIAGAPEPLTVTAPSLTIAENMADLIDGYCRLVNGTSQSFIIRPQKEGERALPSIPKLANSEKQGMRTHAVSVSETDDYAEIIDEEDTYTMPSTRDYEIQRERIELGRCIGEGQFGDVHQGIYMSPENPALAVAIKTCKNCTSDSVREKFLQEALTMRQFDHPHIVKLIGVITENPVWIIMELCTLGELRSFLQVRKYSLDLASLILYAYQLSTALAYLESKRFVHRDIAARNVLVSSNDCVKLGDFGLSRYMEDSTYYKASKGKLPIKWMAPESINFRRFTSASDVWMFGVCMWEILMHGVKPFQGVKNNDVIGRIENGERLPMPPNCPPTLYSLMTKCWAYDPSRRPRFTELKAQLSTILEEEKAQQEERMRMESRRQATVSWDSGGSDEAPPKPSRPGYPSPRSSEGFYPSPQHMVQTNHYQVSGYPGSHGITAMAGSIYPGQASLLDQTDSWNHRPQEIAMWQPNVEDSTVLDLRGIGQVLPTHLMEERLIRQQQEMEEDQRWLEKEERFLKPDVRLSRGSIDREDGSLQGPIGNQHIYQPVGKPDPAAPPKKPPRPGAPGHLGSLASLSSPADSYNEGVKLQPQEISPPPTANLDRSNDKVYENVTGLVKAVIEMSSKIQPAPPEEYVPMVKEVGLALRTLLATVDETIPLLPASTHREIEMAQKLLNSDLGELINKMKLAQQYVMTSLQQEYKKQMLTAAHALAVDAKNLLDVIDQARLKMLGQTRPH
- experimental_protocol: Z′-LYTE kinase assay (SelectScreen Biochemical Kinase Profiling), enzymatic IC50
- assay_conditions: enzymatic, Z′-LYTE; read-out: FAK IC50
# log10 IC50 values compiled below
Reminder: these figures are log10 of reported IC50, in nM before transformation.

Some solved entries appear below for comparison.
{"compound": "CCc1nc2c(s1)N(C)c1nc(Nc3ccc(N4CCC(N5CCN(C)CC5)CC4)cc3OC)ncc1N(C)C2=O [Compound 193]", "measure": "log10 IC50", "measured_number": 1.50}
{"compound": "CNC(=O)c1ccc(Nc2ncc3c(n2)N(C)c2sc(C)nc2C(=O)N3C)cc1 [Compound 197]", "measure": "log10 IC50", "measured_number": 2.24}
{"compound": "COc1cc(C2CCN(C)CC2)ccc1Nc1ncc2c(n1)N(C)c1sc(C)nc1C(=O)N2C [Compound 19]", "measure": "log10 IC50", "measured_number": 1.72}
{"compound": "COc1cc(N2CCN(CCO)CC2)ccc1Nc1ncc2c(n1)N(C)c1sc(C)nc1C(=O)N2C [Compound 20]", "measure": "log10 IC50", "measured_number": 1.87}

Please fill in: log10 IC50 reported for Cc1nc2c(s1)N(C)c1nc(Nc3ccc(N4CCN(C)CC4)cc3)ncc1NC2=O [Compound 1] = 2.36

Please fill in: log10 IC50 reported for COc1cc(C(=O)N2CCC(N3CCN(C)CC3)CC2)ccc1Nc1ncc2c(n1)N(C)c1sc(C)nc1C(=O)N2C [Compound 28] = 1.89

Please fill in: log10 IC50 reported for COc1cc(Nc2ncc3c(n2)N(C)c2sc(C)nc2C(=O)N3)ccc1N1CCN(C)CC1 [Compound 4] = 1.96

Please fill in: log10 IC50 reported for CCCN1c2nc(Nc3ccc(N4CCC(N5CCN(C)CC5)CC4)cc3OC)ncc2N(C)C(=O)c2nc(C)sc21 [Compound 205] = 1.67

Please fill in: log10 IC50 reported for COc1cc(N2CCN(C3CCN(C)CC3)CC2)ccc1Nc1ncc2c(n1)N(C)c1sc(C)nc1C(=O)N2C [Compound 195] = 1.80

Please fill in: log10 IC50 reported for C=CC(=O)N1CCN(c2ccc(Nc3ncc4c(n3)N(C)c3sc(C)nc3C(=O)N4C)c(OC)c2)CC1 [Compound 13] = 1.73
